- Tested on: OVCAR-5 ovarian
- METHOD: NCI-60 one-dose screen, 48 h (100 = growth as untreated, 0 = no growth, -100 = all killed)
- APPLIED_CONDITIONS: 10 µM unless noted
- Experimental: Growth inhibition of the OVCAR-5 human tumor cell line is measured as a screen for anti-cancer activity. Cells are grown in 96 well plates and exposed to the test compound for 48 hours. Compounds are tested at a single concentration, which is 10^-5 M for most compounds. The reported endpoint is percent growth (GI% or GIPRCNT), where numbers from 0 - 100% represent growth inhibition, and numbers from -100% - 0 represent cell death. For example, a value of 40 represents 60% growth inhibition. […]
Compounds without any hit were thinned out: in the full panel of roughly 83,000, 20% have a hit.
ENDPOINT_NAME: growth (%)
Record the value in %, omitting the unit from your answer.

INSERT INTO assay_data (molecule, endpoint_name, reported_value) VALUES
  ('O=C(c1ccc(Br)cc1)C(Br)C(c1ccc(Cl)cc1)C(c1ccccc1)[N+](=O)[O-] (stereo not given)', 'growth', 108),
  ('C=C1CC[C@@H]2C(C)(C)[C@H](O)CC[C@@]2(C)[C@@H]1COc1ccc2ccc(=O)oc2c1', 'growth', 109),
  ('CCOC(=O)c1nnn(Cc2cc(=O)oc3ccc(O)cc23)c1C', 'growth', 101),
  ('Cc1ccc(C2CC(c3cccc(Nc4ccncc4)c3)=Nc3c(N)nc(N)nc3N2)cc1 (stereo not given)', 'growth', 95.5);

In the following, a different molecule is considered.
growth recorded for this molecule, C=C[C@@]1(C)CC(=O)[C@@H](C(C)(C)c2cn(C)c3ccc(Br)cc23)C[C@@H]1O[Si](C)(C)C(C)(C)C , is 106
